# test_details: Stability of CYZ in plasma (short-term room temperature and freeze-thaw)
# Type: in vitro ADME, human
# condition_parameters: rat plasma, 400 ng/mL, room temperature for 6 h
recorded_endpoint: remaining at 6 h, 400 ng/mL (%)
Hi! Could you send only the number? It should be in %, unit omitted.

Query: Would you kindly share the measured remaining at 6 h, 400 ng/mL for CN1CCN(C(c2ccccc2)c2ccccc2)CC1 [CYZ, 1-benzhydryl-4-methylpiperazine] ?
Result: 98

====

# test_details: Pharmacokinetics of CYZ in human plasma after I.V administration (non-compartmental analysis)
# Format: in vivo
# condition_parameters: intravenous, I.V administration of Emetrex 50 mg
recorded_endpoint: Cmax

Query: Fill in the blank: the reported Cmax of CN1CCN(C(c2ccccc2)c2ccccc2)CC1 [CYZ, 1-benzhydryl-4-methylpiperazine] is ____.
Result: 72.8 ng/mL
